Test system: SK-OV-3
Assay: NCI tumour cell line growth inhibition, 48 h
Active and inactive are the calls of the source. No stated cut-off is given here; in the data, active = GI50 up to about 1.1 µM and inactive = higher.
ATTRIBUTE_MEASURED: GI50

Problem: Find GI50 (SK-OV-3) for the entry `O=C(/C=C/c1cccs1)c1ccc([N+](=O)[O-])cc1`
Result: > 100 µM (inactive)

Problem: Find GI50 (SK-OV-3) for the entry `Cc1nc2c(c(N3CCN(C)CC3)n1)Cc1ccccc1-2`
Result: > 100 µM (inactive)

Problem: Find GI50 (SK-OV-3) for the entry `CC(C)NC(=O)OCc1c(COC(=O)NC(C)C)c(-c2cc[n+](COC(=O)Cc3ccccc3)cc2)n2c1CCC2`
Result: > 100 µM (inactive)

Problem: Find GI50 (SK-OV-3) for the entry `c1ccc2c(Cc3nnc4sc(SSc5nn6c(Cc7c[nH]c8ccccc78)nnc6s5)nn34)c[nH]c2c1`
Result: 39.9 µM (inactive)

Problem: Find GI50 (SK-OV-3) for the entry `N=c1c2sc3nc4ccccc4n3c2ncn1Cc1ccccc1`
Result: > 100 µM (inactive)

* * *

Test system: UACC-257
Test: NCI tumour cell line growth inhibition, 48 h
Activity calls are given as the source filed them. Cut-off read from the data, not from the text of the source: active = GI50 up to about 1.1 µM and inactive = higher.
ATTRIBUTE_MEASURED: GI50

Problem: Which GI50 is listed for `O=C1CCC(=O)N1n1c(Cc2ccccc2)n[nH]c1=O` ?
Result: > 100 µM (inactive)

Problem: Which GI50 is listed for `Cc1nc(Nc2ccc(Cl)cc2)sc1C(=O)Nc1cccc2c(=O)[nH][nH]c(=O)c12` ?
Result: 96.8 µM (inactive)

Problem: Which GI50 is listed for CCOC(=O)c1ccc(N[C@@H]2c3cc4c(cc3C(c3cc(OC)c(O)c(OC)c3)[C@H]3C(=O)OCC32)OCO4)cc1O (stereo partly specified) ?
Result: 2.91 µM (inactive)

Problem: Which GI50 is listed for `O=C1/C(=C/c2ccccc2O)N=C(c2ccccc2)N1c1nc2ccccc2s1` ?
Result: 19.8 µM (inactive)

Problem: Which GI50 is listed for `Cc1ccc(SSCCCS(=O)O)cc1` ?
Result: 50.2 µM (inactive)

Problem: Which GI50 is listed for CCCCC(C)C1CCC2(C)C=CC(=O)C(C)=C2C1O (stereo unspecified) ?
Result: > 100 µM (inactive)

* * *

Tested on: UACC-62
Experiment: NCI tumour cell line growth inhibition, 48 h
The source made the active and inactive calls. Cut-off read from the data, not from the text of the source: active = GI50 up to about 1.1 µM and inactive = higher.
Permitted responses: YES for active, NO for inactive

Problem: What outcome does the record of this test show for COC(O)C(=O)c1ccc2c(c1)CC1(C2)Cc2cc3c(cc2C1=O)CCC3 (stereo not given) ?
Result: NO

Problem: What outcome does the record of this test show for `Cc1c2ccnc(-c3ccccc3)c2cc2c1[nH]c1ccccc12` ?
Result: YES

Problem: What outcome does the record of this test show for `CNC(=O)OCc1c2ccncc2c(C)c2c1[nH]c1ccccc12` ?
Result: YES

Problem: What outcome does the record of this test show for CCSC(=O)C1(C)OC2CCCCC2C1=O (stereo not given) ?
Result: NO

Problem: What outcome does the record of this test show for CC(O)CNC1=CC(=O)C(=O)c2ccccc21 (stereo not given) ?
Result: NO

Problem: What outcome does the record of this test show for `Cn1c(-c2cccs2)cc(-c2ccsc2)c1-c1ccsc1` ?
Result: NO

Problem: What outcome does the record of this test show for `Nc1nc(N)c2c(Cl)c(CNc3ccc(Cl)c(Cl)c3)ccc2n1` ?
Result: YES

Problem: What outcome does the record of this test show for `O=c1c(Cc2ccc(Cl)cc2)nnc2sc(-c3ccc([N+](=O)[O-])cc3)nn12` ?
Result: NO

Problem: What outcome does the record of this test show for O=C1c2cccnc2C(=O)C2C3C=CC(C3)C12 (stereo not given) ?
Result: NO

Problem: What outcome does the record of this test show for `Nc1c([N+](=O)[O-])nc(Cl)c2nncn12` ?
Result: NO

Problem: What outcome does the record of this test show for `COC(=O)c1ccccc1/C=C1\Cc2ccc3c(c2C1=O)CCC3` ?
Result: NO

Problem: What outcome does the record of this test show for `CCOC(=O)c1c(C)noc1/N=N/N(CCO)CCO` ?
Result: NO

Problem: What outcome does the record of this test show for `CSCSSC` ?
Result: NO

Problem: What outcome does the record of this test show for `O=C(Nc1ccc2ccccc2c1)c1cc2cc(CCl)ccc2oc1=O` ?
Result: NO

Problem: What outcome does the record of this test show for COc1ccc(O)cc1 [MEQUINOL] ?
Result: NO

Problem: What outcome does the record of this test show for CC(C)(C)c1ccc(O)c(C(O)c2cccnc2)c1 (stereo not given) ?
Result: NO

Problem: What outcome does the record of this test show for CC[S+]([O-])C(=O)N(O)c1ccc(Cl)cc1 (stereo not given) ?
Result: NO

Problem: What outcome does the record of this test show for `O=S(=O)(C/C(=N\O)c1ccccc1)c1ccccc1` ?
Result: NO

Problem: What outcome does the record of this test show for `Cc1nc(C)c(N2CCN(C#N)CC2)c(O)n1` ?
Result: NO

Problem: What outcome does the record of this test show for `O=[PH]1c2ccccc2Nc2ccccc21` ?
Result: NO

Problem: What outcome does the record of this test show for `Nc1ccc2[nH]c3c(-c4ccccc4)nccc3c2c1` ?
Result: NO

Problem: What outcome does the record of this test show for C=C1C(=O)OC2C1C(OC(=O)/C(C)=C\C)CC1(CO1)C1C(O)C=C(C)C21O (stereo not given) ?
Result: NO

Problem: What outcome does the record of this test show for `O=C(O)c1ccc(OCc2ccccc2)c(Cl)c1` ?
Result: NO

Problem: What outcome does the record of this test show for `Cc1n[nH]c(=O)n1N1C(=O)CCCC1=O` ?
Result: NO

Problem: What outcome does the record of this test show for `CC1(C)CCc2cc3c(cc2O1)OC(C)(C)CC3=O` ?
Result: NO

Problem: What outcome does the record of this test show for `CN(C)S(=O)(=O)c1ccc2c(c1)/C(=C1/Nc3ccccc3C1=O)C(=O)N2` ?
Result: NO

Problem: What outcome does the record of this test show for O=[N+]([O-])c1ccc(C(O)/C(=N/O)c2nc3ccc(Cl)cc3nc2O)cc1 (stereo not given) ?
Result: NO

Problem: What outcome does the record of this test show for O=C(CCC(=O)Nc1ccccc1C(F)(F)F)N/N=C1\C(=N\NC(=O)CCC(=O)Nc2ccccc2C(F)(F)F)C(c2ccc3c(c2)OCO3)Oc2ccccc21 (stereo not given) ?
Result: NO

Problem: What outcome does the record of this test show for `COc1ccc2c(c1)CCc1cc(OC)ccc1/[N+]([O-])=[N+]\2[O-]` ?
Result: NO

Problem: What outcome does the record of this test show for `O=C(O)c1nc2ccc(C(F)(F)F)cc2[nH]c1=O` ?
Result: NO

FYI, the data here is from ChEMBL document CHEMBL1201862.
